From: patent US10517889B2

Test system: human SMAD7 mRNA
Assay: Antisense inhibition of human SMAD7 mRNA expression in Hep3B cells by 5-10-5 MOE gapmers, single concentration, electroporation, RT-PCR (Example 1, Study 1 and 2)
Assay type: cell-based
Conditions: Study 2, electroporation with 15,000 nM antisense oligonucleotide, 5-10-5 MOE gapmers targeting SEQ ID NO: 1 and 2
Strand notation (5' to 3'): a small letter for the sugar, then the base; units joined by * are phosphorothioate-linked, units joined directly phosphodiester-linked; [ ] holds rarer units or linkages, { } end groups; capitals alone tell only the bases. e = 2'-O-(2-methoxyethyl) (MOE); [5mC] = 5-methylcytosine; d = 2'-deoxy (DNA)
Reported % Inhibition by item:
readoutLabel: % Inhibition (%)

{"substance": "771883 (antisense eA*eG*e[5mC]*eT*eG*dG*d[5mC]*dA*d[5mC]*dT*dG*dA*dA*dT*dG*e[5mC]*eT*eG*eA*eT) [compound 771883]", "resultNumber": 26}
{"substance": "771934 (antisense e[5mC]*eT*eG*eG*eA*dA*dA*dG*dG*dA*dA*dG*dA*d[5mC]*dT*e[5mC]*eG*eA*eG*eG) [compound 771934]", "resultNumber": 15}
{"substance": "771382 (antisense eA*eA*eA*eT*eA*dA*dA*dA*dA*d[5mC]*dA*d[5mC]*d[5mC]*dA*dA*eG*eA*eT*e[5mC]*e[5mC]) [compound 771382]", "resultNumber": 0}
{"substance": "771951 (antisense e[5mC]*eT*eG*e[5mC]*eA*dG*dA*dG*d[5mC]*dA*d[5mC]*dA*dG*dA*dT*eG*e[5mC]*eA*eA*eA) [compound 771951]", "resultNumber": 9}
{"substance": "771724 (antisense e[5mC]*e[5mC]*eT*eT*e[5mC]*dT*d[5mC]*d[5mC]*d[5mC]*dA*dG*dA*dA*d[5mC]*d[5mC]*eT*eT*eG*eG*e[5mC]) [compound 771724]", "resultNumber": 27}
